Measurement description: RP, Merck Supelco Ascentis Express C18, 100 × 2.1 mm, 2 µm, 40 °C, 0.4 mL/min, estimated dead time 0.55 min; A: water + 0.1% formic acid, pH 3; B: acetonitrile + 0.1% formic acid, pH 3; gradient (min/%B) 0/5 2/5 17/99.9 20/99.9
Measurement parameters: stereoisomer not certain
Assay readout: LC retention time (min)

Completed entries (count: 3):
Query :: Need LC retention time of Cc1cc2nc3c(=O)[nH]c(=O)nc-3n(CC(O)C(O)C(O)CO)c2cc1C (configuration not stated) [RIBOFLAVIN] , thanks.
Result :: 4.23

Query :: Need LC retention time of COc1cc(C=CC(=O)O)ccc1O [FERULATE] , thanks.
Result :: 4.81

Query :: Need LC retention time of O=C(O)c1ccc(O)c(O)c1 [3,4-DIHYDROXYBENZOATE] , thanks.
Result :: 1.52

a. N[C@@H](Cc1cc(I)c(Oc2ccc(O)cc2)c(I)c1)C(=O)O [3,5-DIIODO-L-THYRONINE]
b. O=C(O)CCCCC(=O)O [ADIPATE]
Query :: Please tell me which of the two, a or b , has the higher reported LC retention time value. Lab note: record the label of whichever item you select.
Result :: a

* * *

Measurement description: RP, Merck Supelco Ascentis Express C18, 100 × 2.1 mm, 2 µm, 40 °C, 0.4 mL/min, estimated dead time 0.55 min; A: water + 0.1% formic acid, pH 3; B: acetonitrile + 0.1% formic acid, pH 3; gradient (min/%B) 0/5 2/5 17/99.9 20/99.9
Measurement parameters: stereoisomer not certain
Assay readout: LC retention time (min)

Query :: Need LC retention time of CC(CCC(=O)O)C1CCC2C3C(O)CC4CC(O)CCC4(C)C3CC(O)C12C (stereo not given) [CHOLATE] , thanks.
Result :: 8.94

1. CC(CCC(=O)NCC(=O)O)C1CCC2C3C(O)CC4CC(O)CCC4(C)C3CC(O)C12C (stereo not given) [GLYCOCHOLATE]
2. O=C(O)c1ccc[nH]1 [PYRROLE-2-CARBOXYLATE]
Query :: Please tell me which of the two, 1 or 2 , has the higher reported LC retention time value. Lab note: record the label of whichever item you select.
Result :: 1

* * *

Measurement description: RP, Merck Supelco Ascentis Express C18, 100 × 2.1 mm, 2 µm, 40 °C, 0.4 mL/min, estimated dead time 0.55 min; A: water + 0.1% formic acid, pH 3; B: acetonitrile + 0.1% formic acid, pH 3; gradient (min/%B) 0/5 2/5 17/99.9 20/99.9
Measurement parameters: stereoisomer not certain
Assay readout: LC retention time (min)

Query :: Need LC retention time of `Cc1c[nH]c(=O)[nH]c1=O` , thanks.
Result :: 0.8

Query :: Need LC retention time of `Cn1c(=O)c2[nH]cnc2n(C)c1=O` , thanks.
Result :: 2.15

Query :: Need LC retention time of O=C(O)c1ccc(O)cc1 [4-HYDROXYBENZOATE] , thanks.
Result :: 2.54

Query :: Need LC retention time of Nc1ccccc1C(=O)O [ANTHRANILATE] , thanks.
Result :: 3.93

P. CSCC[C@H](NC=O)C(=O)O
Q. NC(Cc1ccccc1)C(=O)O (stereo unspecified)
Query :: Please tell me which of the two, P or Q , has the higher reported LC retention time value. Lab note: record the label of whichever item you select.
Result :: P

* * *

Measurement description: RP, Merck Supelco Ascentis Express C18, 100 × 2.1 mm, 2 µm, 40 °C, 0.35 mL/min, estimated dead time 0.63 min; A: water + 0.1% formic acid, pH 3; B: acetonitrile + 0.1% formic acid, pH 3; gradient (min/%B) 0/5 2/5 17/99.9 20/99.9
Measurement parameters: stereoisomer not certain
Structures can show the parent of a compound that is named as a salt.
Assay readout: LC retention time (min)

Completed entries (count: 3):
Query :: Need LC retention time of Nc1ncnc2c1ncn2C1CC(O)C(CO)O1 (stereo not given) [DEOXYADENOSINE] , thanks.
Result :: 0.77

Query :: Need LC retention time of O=C(O)c1ccccc1[O-] [SALICYLATE] , thanks.
Result :: 3.9

Query :: Need LC retention time of Cn1c(=O)c2[nH]cnc2n(C)c1=O [THEOPHYLLINE] , thanks.
Result :: 2.47

P. COc1cc(C(O)C(=O)O)ccc1O (stereo not given) [3-METHOXY-4-HYDROXYMANDELATE]
Q. CC(=O)Oc1cccc(O)c1 [RESORCINOL MONOACETATE]
Query :: Returns: the label, P or Q , whose recorded LC retention time is the lower number. Lab note: record the label of whichever item you select.
Result :: P

1. CC(=O)C1CCC2C3CC=C4CC(OS(=O)(=O)O)CCC4(C)C3CCC12C (stereo not given) [PREGNENOLONE SULFATE]
2. CCCCCCCCCCCCCCCCC(=O)O [HEPTADECANOATE]
Query :: Please tell me which of the two, 1 or 2 , has the higher reported LC retention time value. Lab note: record the label of whichever item you select.
Result :: 2
(2: 16.7 min, 1: 8.79 min)

P. O=C(O)CCCCCCCC(=O)O [AZELATE]
Q. CC(=O)OCC(=O)C1(O)CCC2C3CCC4=CC(=O)CCC4(C)C3C(O)CC21C (stereo not given) [CORTISOL 21-ACETATE]
Query :: Returns: the label, P or Q , whose recorded LC retention time is the lower number. Lab note: record the label of whichever item you select.
Result :: P

* * *

Measurement description: RP, Merck Supelco Ascentis Express C18, 100 × 2.1 mm, 2 µm, 40 °C, 0.2 mL/min, estimated dead time 1.1 min; A: water + 0.1% formic acid, pH 3; B: acetonitrile + 0.1% formic acid, pH 3; gradient (min/%B) 0/5 2/5 17/99.9 20/99.9
Measurement parameters: stereoisomer not certain
Assay readout: LC retention time (min)

Query :: Need LC retention time of O=C(O)c1ccc2ccccc2c1O [1-HYDROXY-2-NAPHTHOATE] , thanks.
Result :: 10.4

Query :: Need LC retention time of O=CCc1c[nH]c2ccccc12 [INDOLEACETALDEHYDE] , thanks.
Result :: 4.21

Query :: Need LC retention time of O=C(O)Cc1cc(O)ccc1O [HOMOGENTISATE] , thanks.
Result :: 2.38

Query :: Need LC retention time of O=C(O)c1ccnc2ccccc12 [4-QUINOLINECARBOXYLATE] , thanks.
Result :: 1.57

Query :: Need LC retention time of O=C(O)Cc1ccc(O)c(O)c1 [3,4-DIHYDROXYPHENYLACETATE] , thanks.
Result :: 3.97

Query :: Need LC retention time of O=C(O)Cc1c[nH]c2ccc(O)cc12 [5-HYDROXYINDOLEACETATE] , thanks.
Result :: 4.78

Query :: Need LC retention time of CCCCCCCCCCCCCCCC(=O)O [PALMITATE] , thanks.
Result :: 17.9

Query :: Need LC retention time of O=C(O)c1cc(O)ccc1O [2,5-DIHYDROXYBENZOATE] , thanks.
Result :: 4.65

Query :: Need LC retention time of O=C(O)c1cccc(O)c1O [2,3-DIHYDROXYBENZOATE] , thanks.
Result :: 5.33

Query :: Need LC retention time of CCCCCC=CCC=CCCCCCCCC(=O)O [LINOLEATE] , thanks.
Result :: 17

P. O=Cc1cccc(O)c1 [3-HYDROXYBENZALDEHYDE]
Q. CC(=CC(=O)O)C(=O)O [2-METHYLMALEATE]
R. O=C([O-])c1ccccn1 [PICOLINATE]
Query :: Falling order of LC retention time, please. Order the labels as requested and list them.
Result :: P, Q, R

* * *

Measurement description: RP, Merck Supelco Ascentis Express C18, 100 × 2.1 mm, 2 µm, 40 °C, 0.2 mL/min, estimated dead time 1.1 min; A: water + 0.1% formic acid, pH 3; B: acetonitrile + 0.1% formic acid, pH 3; gradient (min/%B) 0/5 2/5 17/99.9 20/99.9
Measurement parameters: stereoisomer not certain
Assay readout: LC retention time (min)

Completed entries (count: 9):
Query :: Need LC retention time of CC(=O)NC(CS)C(=O)O (stereo unspecified) [N-ACETYLCYSTEINE] , thanks.
Result :: 1.91

Query :: Need LC retention time of NC(=O)c1ccccc1O [SALICYLAMIDE] , thanks.
Result :: 5.82

Query :: Need LC retention time of CCCCCCCCCCCCCC(=O)OCC(O)CO (stereo unspecified) [GLYCEROL-MYRISTATE] , thanks.
Result :: 15.4

Query :: Need LC retention time of CCCCCC=CCC=CCC=CCCCCC(=O)O [GAMMA-LINOLENATE] , thanks.
Result :: 16.2

Query :: Need LC retention time of CCCCCCCCC=CCCCCCCCC(=O)OCC(O)CO (stereo unspecified) [OLEOYL-GLYCEROL] , thanks.
Result :: 17.3

Query :: Need LC retention time of CC(=O)Oc1cccc(O)c1 [RESORCINOL MONOACETATE] , thanks.
Result :: 7.01

Query :: Need LC retention time of CC1NC(=O)NC1CCCCCC(=O)O (stereo unspecified) [DETHIOBIOTIN] , thanks.
Result :: 5.96

Query :: Need LC retention time of CSc1ncnc2nc[nH]c12 [THIOPURINE S-METHYLETHER] , thanks.
Result :: 4.85

Query :: Need LC retention time of CC(=O)Oc1ccccc1 [PHENYL ACETATE] , thanks.
Result :: 5.43

a. C[Se]CCC(N)C(=O)O (stereo unspecified) [SELENOMETHIONINE]
b. Cn1cnc2c(ncn2C2OC(CO)C(O)C2O)c1=N (stereo unspecified) [1-METHYLADENOSINE]
Query :: Please tell me which of the two, a or b , has the higher reported LC retention time value. Lab note: record the label of whichever item you select.
Result :: b

meta.source: the RepoRT retention time repository (doi:10.1007/s00216-021-03828-0)
